src = the RNAGym collection of RNA variant scans (doi:10.1002/anie.201605470)

B1: Osa-1-4 twister ribozyme (parent)
chain: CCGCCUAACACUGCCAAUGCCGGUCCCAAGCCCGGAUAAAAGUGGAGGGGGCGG

# Variants of: B1
# assay_details: self-cleavage, relative activity (ratio to wild type); higher = more cleavage; co-transcriptional
Collected self-cleavage values appear next to each entry.
Provide a numeric answer; units are not to be included.

CCGCCUAACACUGCCAACGCAGGUCCCAAGCCCGGAUAAAAGUGGAGGGGGCGG [C21A U18C] ... 0.82
CCGCCUAACACUGCCAAUGCGGGUCCCAAGCCCGGAUCAAAGUGGAGGGGGCGG [A38C C21G] ... 0.07
CCGCCUAACACUGCCAAUUCCGGACCCAAGCCCGGAUAAAAGUGGAGGGGGCGG [G19U U24A] ... 0.05

I am curious: what self-cleavage value has been reported for CCGCCUAACACUGCCAAUGCCCGUCCCAAGCCCAGAUAAAAGUGGAGGGGGCGG [G22C G34A] ? 0.05

Name the reported self-cleavage value associated with the variant CCGCCUAACACUGCCAAUGCCGGUCCCAAGCCCGGAUAAAAGUGGAGUGGGCGG [G48U] 0.1
